Values were extracted from patent US20230391845A1.

target: human glucagon receptor (human, UniProt P47871 26-477); assay: cell-based or functional assay
Sequence (P47871 26-477): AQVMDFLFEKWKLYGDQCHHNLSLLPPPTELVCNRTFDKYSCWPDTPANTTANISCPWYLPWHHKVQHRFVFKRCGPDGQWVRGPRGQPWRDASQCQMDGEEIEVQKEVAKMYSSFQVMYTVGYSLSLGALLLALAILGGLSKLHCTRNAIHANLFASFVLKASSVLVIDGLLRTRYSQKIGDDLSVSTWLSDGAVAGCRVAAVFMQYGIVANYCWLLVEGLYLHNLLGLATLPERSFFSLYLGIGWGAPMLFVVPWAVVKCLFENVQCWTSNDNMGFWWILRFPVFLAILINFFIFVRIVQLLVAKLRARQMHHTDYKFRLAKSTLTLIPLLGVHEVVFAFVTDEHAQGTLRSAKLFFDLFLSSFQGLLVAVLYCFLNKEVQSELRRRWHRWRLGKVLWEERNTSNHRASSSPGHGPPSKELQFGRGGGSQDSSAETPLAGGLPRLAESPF
Where no end group is shown, it is not given here. [ ]: non-standard residue; d: D form. Aib = CC(C)(N)C(=O)O
PARAMETER: hGcgR CRE Luc EC50 (pM)
// units = pM; emit number, no label

Request the reported hGcgR CRE Luc EC50 (pM) associated with H[Aib]HGTFTSDYSIYLDKQAA[Aib]EFVQWLLEGGPSSGAPPPS-NH2 (not fully specified (residue 16); printed as H-Aib-HGTFTSDYSIYLD-K[(2S)-2-amino-6-[[(2S)-2-amino-6-[[(4S)-4-carboxy-4-(19-carboxynonadecanoylamino)butanoyl]amino]hexanoyl]amino]hexanoyl]-QAA-Aib-EFVQWLLEGGPSSGAPPPS-NH2) [Compound No. 28]
16.7

Look up hGcgR CRE Luc EC50 (pM) for this binder: H[Aib]QGTFTSDYSIYLEKQAA[Aib]EFVQWLLEGGPSSGAPPPS-NH2 (not fully specified (residue 16); printed as H-Aib-QGTFTSDYSIYLE-K[(2S)-2-amino-6-[[(2S)-2-amino-6-[[(4S)-4-carboxy-4-(19-carboxynonadecanoylamino)butanoyl]amino]hexanoyl]amino]hexanoyl]-QAA-Aib-EFVQWLLEGGPSSGAPPPS-NH2) [Compound No. 19]
357
